target: NR2F6 (Homo sapiens, UniProt P10588)
Construct: expressed in transfected cells; also transient transfection
Sequence (P10588 whole entry): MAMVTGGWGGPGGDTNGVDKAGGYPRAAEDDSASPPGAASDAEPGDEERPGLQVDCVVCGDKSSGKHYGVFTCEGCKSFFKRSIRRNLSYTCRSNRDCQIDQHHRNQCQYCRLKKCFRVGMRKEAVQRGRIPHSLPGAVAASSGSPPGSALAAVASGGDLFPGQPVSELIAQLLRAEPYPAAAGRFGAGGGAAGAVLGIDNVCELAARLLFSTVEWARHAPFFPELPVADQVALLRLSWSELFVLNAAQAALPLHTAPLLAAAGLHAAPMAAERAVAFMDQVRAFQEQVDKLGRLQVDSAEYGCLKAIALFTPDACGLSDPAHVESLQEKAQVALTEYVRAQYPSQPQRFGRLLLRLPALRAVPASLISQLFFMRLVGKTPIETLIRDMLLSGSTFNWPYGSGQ
measurement.description: NR2F6 agonist screening, Firefly signal cmpd/DMSO
Format: cell-based
assay.conditions: F4; 1% FBS; 10 uM
measured.metric: Firefly, F4, 1% FBS, cmpd/DMSO (mean)

[A] CC(=O)Nc1ccc(S(=O)(=O)[C@H]2CS(=O)(=O)C[C@@H]2NC2CC2)cc1 [Compound D133]
[B] O=S1(=O)C[C@H](NCCCc2ccccc2)[C@@H](S(=O)(=O)c2ccc(Cl)cc2)C1 [Compound D137]
input: Of A and B , which shows the smaller Firefly, F4, 1% FBS, cmpd/DMSO (mean) value? Output the label that corresponds to your choice.
output: A

* * *

target: ERα (Homo sapiens, UniProt P03372)
Construct: expressed in transfected cells
Sequence (P03372 whole entry, species assumed): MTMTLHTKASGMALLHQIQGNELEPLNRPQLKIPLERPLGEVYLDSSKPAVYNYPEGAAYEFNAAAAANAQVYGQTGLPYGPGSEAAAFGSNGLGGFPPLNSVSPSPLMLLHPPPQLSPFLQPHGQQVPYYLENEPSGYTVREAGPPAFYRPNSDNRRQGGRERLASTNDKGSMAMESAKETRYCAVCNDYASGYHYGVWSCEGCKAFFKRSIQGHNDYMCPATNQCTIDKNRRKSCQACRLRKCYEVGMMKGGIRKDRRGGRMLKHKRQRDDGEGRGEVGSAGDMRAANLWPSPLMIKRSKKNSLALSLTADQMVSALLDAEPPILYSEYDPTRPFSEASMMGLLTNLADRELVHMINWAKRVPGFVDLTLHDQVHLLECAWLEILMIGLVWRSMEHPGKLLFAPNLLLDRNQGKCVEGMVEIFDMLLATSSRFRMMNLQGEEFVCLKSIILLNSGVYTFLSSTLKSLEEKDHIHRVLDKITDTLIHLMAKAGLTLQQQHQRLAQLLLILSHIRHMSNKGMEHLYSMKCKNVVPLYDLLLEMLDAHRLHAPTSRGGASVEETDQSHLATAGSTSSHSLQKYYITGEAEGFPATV
measurement.description: Counterscreening, Firefly signal with ERα transient transfection (Firefly_ERa)
Assay type: cell-based
assay.conditions: 2 uM
measured.metric: Firefly ERalpha transient, cmpd/DMSO (mean)

Recorded Firefly ERalpha transient, cmpd/DMSO (mean), per entry:
COc1ccc2nc(C(F)(F)F)c(C#N)c(NCc3ccc(Cl)cc3)c2c1 [Compound Z38]: 0.9
O=c1cccc2n1CC1CC2CN(c2nc(N3CCOCC3)nc(N3CCOCC3)n2)C1 (centres unmarked) [Compound 31]: 0.8
O=c1cccc2n1CC1CC2CN(c2nc(NCCC3=CCCCC3)nc(N3CCOCC3)n2)C1 (centres unmarked) [Compound 39]: 0.9
COC(=O)CNc1c(C#N)c(C(F)(F)F)nc2ccc(OC)cc12 [Compound Z46]: 0.9
N#Cc1c(C(F)(F)F)nc2ccc(Cl)cc2c1NC1CC1 [Compound Z48]: 1.5
Cc1cc(C)nc(Nc2nc(-c3ccccc3)c(CC(=O)O)s2)n1 [Compound 29]: 1.2
N#Cc1c(C(F)(F)F)nc2ccc(Oc3ccccc3)cc2c1NCCc1ccc(Cl)cc1 [Compound Z52]: 0.7
CCCNc1nc(N2CCOCC2)nc(N2CC3CC(C2)c2cccc(=O)n2C3)n1 (centres unmarked) [Compound 37]: 1.1
COC(=O)c1[nH]c2c(c(C(F)(F)F)nc3ccc(OC)cc32)c1N [Compound Z47]: 0.9
O=c1cccc2n1CC1CC2CN(c2nc(Cl)nc(NCCN3CCOCC3)n2)C1 (centres unmarked) [Compound 27]: 1.2

[I] CC1CCN(c2nc(NCCN3CCOCC3)nc(N3CC4CC(C3)c3cccc(=O)n3C4)n2)CC1 (centres unmarked) [Compound 43]
[II] Cc1cc(C)c2ncc(C(=O)N(C)C)c(NCCCN(C)C)c2c1 [Compound Z31]
input: Smaller Firefly ERalpha transient, cmpd/DMSO (mean) value, I vs II ? Lab log: write the label of the selected item as the result.
output: II
(II: 0.9, I: 1.4)

* * *

Recorded fold induction at 40 µM by entry
Tested on: HEK293 pGL4
measurement.description: Firefly_pGL signal, cmpd/DMSO (pGL4 control cells)
Format: cell-based
assay.conditions: Homo sapiens, HEK293, pGL4; 1% FBS; 40 uM; read-out: Firefly, pGL4, 1% FBS, cmpd/DMSO (mean)
# answer = number (no unit)

# example entries with known answers
CC(=O)N1CCN([C@H]2CS(=O)(=O)C[C@@H]2S(=O)(=O)c2ccc(F)c(C)c2)CC1: 1.4
O=S1(=O)C[C@H](NCCc2cccs2)[C@@H](S(=O)(=O)c2ccc(Cl)cc2)C1: 1.5
CC(=O)Nc1ccc(S(=O)(=O)[C@H]2CS(=O)(=O)C[C@@H]2NC2CC2)cc1: 1
O=S1(=O)C[C@H](NC2CCCC2)[C@@H](S(=O)(=O)c2ccc(F)cc2)C1: 1.5
O=S1(=O)C[C@H](NC2CCCCC2)[C@@H](S(=O)(=O)c2ccccc2)C1: 1.2
CCCN[C@H]1CS(=O)(=O)C[C@@H]1S(=O)(=O)c1ccc(Cl)cc1: 0.6
O=S1(=O)C[C@H](NCCCc2ccccc2)[C@@H](S(=O)(=O)c2ccc(Cl)cc2)C1: 1.5

input: Given the compound `CCCCN(C)[C@H]1CS(=O)(=O)C[C@@H]1S(=O)(=O)c1ccc(Cl)cc1` , write its reported fold induction at 40 µM.
output: 0.8

Reference source for all entries: patent US11377442B2
